# system-under-test: furin, P09958;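 note: purified furin at 1:10 enzyme:substrate in 50 mM HEPES pH 7.5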
# Sequence (P09958 whole entry): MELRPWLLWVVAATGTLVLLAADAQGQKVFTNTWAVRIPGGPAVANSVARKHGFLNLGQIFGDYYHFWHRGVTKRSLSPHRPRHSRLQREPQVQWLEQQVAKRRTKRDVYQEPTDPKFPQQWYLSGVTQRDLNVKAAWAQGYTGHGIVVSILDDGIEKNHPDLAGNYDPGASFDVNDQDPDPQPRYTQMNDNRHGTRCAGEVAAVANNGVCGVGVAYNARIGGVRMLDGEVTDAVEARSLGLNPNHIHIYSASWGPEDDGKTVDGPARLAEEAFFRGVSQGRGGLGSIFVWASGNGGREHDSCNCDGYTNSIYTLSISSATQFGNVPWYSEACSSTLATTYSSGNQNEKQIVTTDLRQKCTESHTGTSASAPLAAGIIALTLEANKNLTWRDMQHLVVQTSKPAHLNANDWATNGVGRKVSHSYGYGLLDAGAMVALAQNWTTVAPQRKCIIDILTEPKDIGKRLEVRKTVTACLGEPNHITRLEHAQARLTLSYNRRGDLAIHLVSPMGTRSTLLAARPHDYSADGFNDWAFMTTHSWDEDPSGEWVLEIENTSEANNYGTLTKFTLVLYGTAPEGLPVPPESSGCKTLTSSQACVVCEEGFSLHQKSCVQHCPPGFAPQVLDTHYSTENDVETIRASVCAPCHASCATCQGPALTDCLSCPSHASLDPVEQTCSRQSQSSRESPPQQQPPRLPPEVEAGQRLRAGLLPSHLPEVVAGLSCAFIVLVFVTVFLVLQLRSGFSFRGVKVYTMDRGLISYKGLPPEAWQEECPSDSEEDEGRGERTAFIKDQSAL
# experimental-protocol: furin cleavage Z-score vs untreated control; higher = more cleavage, active = 3.5 or more, inactive = 1 or less, 8 variable residues between constant flanks
# run-conditions: 30 min
Some of the results follow. No count for the full screen is at hand.
Reply using exactly one outcome from active, inactive

Worked examples follow.
| sequence-entry | class-name |
| --- | --- |
| CARRKRTAVTAGNASASA [FS-2070] | active |
| CAGERGFFYTAGNASASA [EK5] | inactive |
| CARMKRAGRVAGNASASA [FS-1751] | active |
| CAVKKRKGRVAGNASASA [FS-922] | active |
| CAFSSRDERSAGNASASA [FS-588] | inactive |

Assay outcome for CARVRRAAQAAGNASASA [FS-2535] : what was it?
active

Assay outcome for CARMKRIFYRAGNASASA [FS-3162] : what was it?
inactive

Assay outcome for CAGAQRRRRAAGNASASA [FS-1524] : what was it?
active

Assay outcome for CAMAFTAAVTAGNASASA [HC1056] : what was it?
inactive

Assay outcome for CARVRRAAQGAGNASASA [FS-2105] : what was it?
active

Assay outcome for CARALRSVSRAGNASASA [FS-2641] : what was it?
inactive

Assay outcome for CAPAAYAAQGAGNASASA [HC781] : what was it?
inactive

Assay outcome for CASAGRHVRSAGNASASA [FS-1408] : what was it?
active

Assay outcome for CAPLRRFWRSAGNASASA [FS-1602] : what was it?
inactive

Assay outcome for CARALRSLDLAGNASASA [FS-2325] : what was it?
active

Assay outcome for CAGERRRRRAAGNASASA [FS-996] : what was it?
active

Assay outcome for CARRKRYALTAGNASASA [FS-2231] : what was it?
active

Assay outcome for CAGAGAGAGAAGNASASA [NE4] : what was it?
inactive

Assay outcome for CAAGYSGGDIAGNASASA [HC1647] : what was it?
inactive

Assay outcome for CAEVVRSTWVAGNASASA [HC130] : what was it?
inactive

Assay outcome for CAGTTDRSGAAGNASASA [HC419] : what was it?
inactive

Assay outcome for CARRRRAKRSAGNASASA [FS-1481] : what was it?
active

Assay outcome for CARVRRQLDRAGNASASA [FS-3174] : what was it?
active

Assay outcome for CARTDRSSDRAGNASASA [FS-1796] : what was it?
inactive

Assay outcome for CATTICSGSWAGNASASA [HC1864] : what was it?
inactive
